Biological target: T1, recombinant extracellular domain of the predominant human CD22-beta isoform (CD22-ECD) (human, UniProt P20273 20-687, CHO-expressed glycoprotein. Capture on an SA chip implies biotinylation, but the patent does not state it for SPR.)
T1 construct: Expressed in CHO-3E7 cells, IMAC and SEC purified, monomeric fraction; Results say it was immobilized onto a CM5 dextran chip; also called human CD22-ECD; hCD22 ecto-domain
T1 sequence: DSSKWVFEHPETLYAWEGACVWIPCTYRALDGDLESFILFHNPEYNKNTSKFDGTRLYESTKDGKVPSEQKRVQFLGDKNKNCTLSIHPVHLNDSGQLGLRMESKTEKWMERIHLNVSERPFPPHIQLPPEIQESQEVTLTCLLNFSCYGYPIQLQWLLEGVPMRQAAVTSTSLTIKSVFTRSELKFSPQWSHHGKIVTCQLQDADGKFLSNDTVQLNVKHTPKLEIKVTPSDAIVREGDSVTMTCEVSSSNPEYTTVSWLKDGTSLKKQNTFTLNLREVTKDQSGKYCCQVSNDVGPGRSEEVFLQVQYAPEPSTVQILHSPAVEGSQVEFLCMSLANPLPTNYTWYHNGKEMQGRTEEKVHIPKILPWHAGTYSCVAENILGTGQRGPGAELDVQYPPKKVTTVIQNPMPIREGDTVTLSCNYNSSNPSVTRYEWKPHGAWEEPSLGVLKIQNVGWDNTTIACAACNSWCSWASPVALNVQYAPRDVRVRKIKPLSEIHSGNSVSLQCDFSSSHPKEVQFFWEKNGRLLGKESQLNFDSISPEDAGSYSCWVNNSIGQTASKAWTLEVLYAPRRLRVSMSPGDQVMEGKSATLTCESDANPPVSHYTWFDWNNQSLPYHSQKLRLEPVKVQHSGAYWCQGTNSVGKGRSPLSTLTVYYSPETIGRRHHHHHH
Assay: SPR, Biacore T200, VHH over immobilized CD22-ECD
RESULT_TYPE: Kd (nM)
Quick note: give the figure in nM, leave out the unit.

Task: Output Kd of hCD221ug-6 (VHH, single biotin at the VHH C-terminal (biotinylation signal sequence), llama VHH, expressed in E. coli TG1, IMAC purified, monomeric SEC fraction; also called VHH # 5) VHH: QVQLVESGGGVVRPGDSLRLSCTVSGFTLDYYVMGWFRQAPGKEREVVSCISSSDGVTYYADSVKGRFTISRDNAKNTVYLQMNSLKPEDTAIYYCAVDKPFYDGGYYYTCPVDFDSWGQGTQVTVSS
Output: 2.41

Task: # return recorded Kd for entry hCD22pas-16 (VHH, single biotin at the VHH C-terminal (biotinylation signal sequence), llama VHH, expressed in E. coli TG1, IMAC purified, monomeric SEC fraction; also called VHH # 20) VHH: QVQLVESGGGLVQAGGSLRLSCAASGSTFSLKAMAWYRQAPGKQRERVGVINSDGSYTTDAASVQGRFTISRDNAKNTVYLQMNSLKPEDTAVYYCNTMPPWPWGQGTQVTVSS
Output: 2.75

The measurements presented in this section are drawn from patent US20230265185A1.
